Biological target: T1, TIGIT (UniProt Q495A1 22-141, limits assumed)
T1 construct: also called T cell immunoreceptor with Ig and ITIM domains; hTIGIT
T1 sequence (looked up): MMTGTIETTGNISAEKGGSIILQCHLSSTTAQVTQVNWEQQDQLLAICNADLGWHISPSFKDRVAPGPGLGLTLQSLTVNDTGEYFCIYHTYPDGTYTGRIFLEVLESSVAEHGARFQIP
Assay: TIGIT:CD155 blockade assay, competitor CD155
endpoint: IC50 (nM)
Numeric only. Scale: nM

Query TIGIT-471-027 (antibody, V domains shown, Variable domains only) VH: EVQLLESGGGLVQPGGSLRLSCAASGFTFSNYGVSWVRQAPGKGLEWVSWISPHGALTYYADSVKGRFTISRDNSKNTLYLQMNSLKAEDTAVYYCAKGRRRFDYWGQGTLVTVSS VL: DIQMTQSPSSLSASVGDRVTITCRASQTISSYLNWYQQKPGKAPKLLIYENNNRPSGVPSRFSGSGSGTDFTLTISSLQPEDFATYYCQQSYIIPPTFGQGTNVEIK yields IC50 of 13.5
